Entries with reported IC50 on IRAK4 (Homo sapiens (Human), UniProt Q9NWZ3)
Sequence (Q9NWZ3 whole entry): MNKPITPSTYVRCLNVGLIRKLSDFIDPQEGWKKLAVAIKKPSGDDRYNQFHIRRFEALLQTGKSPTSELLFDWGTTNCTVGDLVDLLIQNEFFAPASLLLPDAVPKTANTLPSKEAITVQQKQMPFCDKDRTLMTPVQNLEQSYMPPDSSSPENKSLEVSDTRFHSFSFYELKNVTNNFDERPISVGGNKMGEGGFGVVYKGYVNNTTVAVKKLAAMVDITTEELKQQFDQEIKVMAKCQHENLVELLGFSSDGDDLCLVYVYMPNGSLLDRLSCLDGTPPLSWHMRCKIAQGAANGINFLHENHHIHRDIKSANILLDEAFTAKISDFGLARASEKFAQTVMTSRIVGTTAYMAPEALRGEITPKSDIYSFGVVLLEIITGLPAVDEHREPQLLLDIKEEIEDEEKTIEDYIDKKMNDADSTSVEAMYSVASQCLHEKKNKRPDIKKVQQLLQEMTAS
Readout type: IC50 (nM)

Worked examples, 3 compounds total:
Cc1cc(Nc2ncc(-c3ccc4ccccc4n3)c(N[C@@H]3C[C@H](C(C)(C)O)[C@@H](O)[C@H]3O)n2)ccn1 [Example 124] :: 0.2
OC[C@H]1C[C@@H](Nc2nc(NC3COC3)ncc2-c2ccc3ccccc3n2)[C@H](O)[C@@H]1O [Example 57] :: 10600
OC[C@H]1C[C@@H](Nc2nc(NC3CCC3)ncc2-c2ccc3ccccc3n2)[C@H](O)[C@@H]1O [Example 56] :: 483

1 = Cc1cnccc1Nc1ncc(-c2nc3ccccc3s2)c(N[C@@H]2C[C@H](CO)[C@@H](O)[C@H]2O)n1 [Example 8]
2 = COc1cc(Nc2ncc(-c3ccc4ccccc4n3)c(N[C@@H]3CC(C(C)(C)O)[C@@H](O)[C@H]3O)n2)ccn1 (stereo in doubt) [Example 112]
[ask] Hi there! Just curious which has the higher IC50 between 1 and 2 . Let me know the label of the one you choose.
[reply] 1

a = Cc1cc(Nc2cc(N[C@@H]3C[C@H](CO)[C@@H](O)[C@H]3O)c(-c3nc4ccccc4s3)cn2)cc(C)n1 [Example 154]
b = OC[C@H]1C[C@@H](Nc2nc(Nc3ccc4[nH]ccc4c3)ncc2-c2nc3ccccc3s2)[C@H](O)[C@@H]1O [Example 23]
[ask] Please indicate which has the smaller reported IC50: a , or b . Your answer should be the label attached to the chosen record.
[reply] a

----------
pIC50: −log10 of the molar value.
Dear all, this message contains pIC50 results, target or system IRAK4 (Homo sapiens (Human), UniProt Q9NWZ3).
Readout type: pIC50

I = CC(C)(O)[C@H]1C[C@@H](Nc2nc(Nc3cccc(C(N)=O)c3)ncc2-c2nc3ccccc3s2)[C@H](O)[C@@H]1O
II = COC[C@H]1C[C@@H](Nc2nc(Nc3ccnc(OC)c3)ncc2-c2nc3ccccc3s2)[C@H](O)[C@@H]1O
III = Cc1nc(Nc2cccc(Cl)c2)nc(N[C@@H]2C[C@H](CO)[C@@H](O)[C@H]2O)c1-c1nc2ccccc2s1
IV = OC[C@H]1C[C@@H](Nc2nc(Nc3cccnc3)ncc2-c2nc3ccccc3s2)[C@H](O)[C@@H]1O
V = OC[C@H]1C[C@@H](Nc2nc(NCC3CC3)ncc2-c2nc3ccccc3s2)[C@H](O)[C@@H]1O
[ask] // rank the listed compounds by pIC50, lowest value first Write out the labels following the order that was asked for.
[reply] III, V, II, IV, I

A = COc1cc(Nc2ncc(-c3nc(-c4ccccc4)cs3)c(N[C@@H]3C[C@H](CO)[C@@H](O)[C@H]3O)n2)ccn1
B = Nc1ncc(-c2nc3cccnc3s2)c(N[C@@H]2C[C@H](CO)[C@@H](O)[C@H]2O)n1
[ask] Given the listed records, identify the one among A and B with higher pIC50. Choose, then provide that item's label.
[reply] B

I = COc1cc(Nc2ncc(-c3ccc4cccc(C)c4n3)c(N[C@@H]3CC(C(C)(C)O)[C@@H](O)[C@H]3O)n2)ccn1 (stereo in doubt)
II = OC[C@H]1C[C@@H](Nc2nc(Nc3ccncn3)ncc2-c2nc3ccccc3s2)[C@H](O)[C@@H]1O
III = Cc1cc(Nc2ncc(-c3nc4ccncc4s3)c(N[C@@H]3C[C@H](CO)[C@@H](O)[C@H]3O)n2)cc(C)n1
IV = OC[C@H]1C[C@@H](Nc2nc(Nc3cccc(F)c3)ncc2-c2nc3ccccc3s2)[C@H](O)[C@@H]1O
[ask] Ascending by pIC50, please. Ranked list of labels, please, in the requested order.
[reply] I, IV, II, III
